The following compounds are shown together with reported pIC50 values.
target: CCR1 (Homo sapiens, UniProt P32246); assay: Chemotaxis assay (inhibition of CCR1 mediated migration); settings: THP-1 or monocyte cells; CCR1 chemokine ligand (MIP-1α, CCL15/Leukotactin); 1-2 hours at 37° C.
Sequence (P32246 whole entry): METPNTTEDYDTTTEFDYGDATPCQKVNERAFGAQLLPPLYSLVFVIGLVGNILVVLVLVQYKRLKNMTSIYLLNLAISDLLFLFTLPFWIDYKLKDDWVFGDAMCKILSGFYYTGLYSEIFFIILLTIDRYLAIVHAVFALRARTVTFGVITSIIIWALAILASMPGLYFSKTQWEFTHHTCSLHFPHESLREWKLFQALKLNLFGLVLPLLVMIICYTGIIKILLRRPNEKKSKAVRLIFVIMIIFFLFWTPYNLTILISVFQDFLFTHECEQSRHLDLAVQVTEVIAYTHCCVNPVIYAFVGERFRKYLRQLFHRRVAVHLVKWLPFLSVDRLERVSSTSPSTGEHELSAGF
pIC50: −log10 of the molar value.

# example entries with known answers
O=C(Cn1nc(-c2ncc[nH]2)c2cccnc21)N1CCN(c2cc(OCCF)c(Cl)cc2F)CC1 ≥ 7.00
COc1cc(N2CCN(C(=O)Cn3nc(-c4ncc[nH]4)c4cccnc43)[C@@H](C)C2)c(F)cc1Cl ≥ 7.00
COc1cc(N2CCN(C(=O)Cn3nc(-c4ncc[nH]4)c4cccnc43)CC2)c(F)cc1Cl ≥ 7.00
CCOc1cc(N2CCN(C(=O)Cn3nc(-c4ncc[nH]4)c4cccnc43)[C@@H](C)C2)ccc1Cl ≥ 7.00

Prompt: Send back CCR1 (Homo sapiens, UniProt P32246) pIC50 of COc1cc(N2CCN(C(=O)Cn3nc(-c4ncc[nH]4)c4cccnc43)CC2)ccc1Cl only.
Completion: ≥ 7.00

Prompt: Send back CCR1 (Homo sapiens, UniProt P32246) pIC50 of C[C@H]1CN(c2ccc(Cl)c(OCCF)c2)CCN1C(=O)Cn1nc(-c2ncc[nH]2)c2cccnc21 only.
Completion: ≥ 7.00

Prompt: Send back CCR1 (Homo sapiens, UniProt P32246) pIC50 of COc1cc(N2CCN(C(=O)Cn3nc(-c4ncc[nH]4)c4cccnc43)C[C@H]2C)ccc1Cl only.
Completion: ≥ 7.00

Prompt: Send back CCR1 (Homo sapiens, UniProt P32246) pIC50 of COc1cc(N2CCN(C(=O)Cn3nc(-c4ncc[nH]4)c4cccnc43)[C@@H](C)C2)ccc1Cl only.
Completion: ≥ 7.00

Prompt: Send back CCR1 (Homo sapiens, UniProt P32246) pIC50 of COc1cc(N2CCN(C(=O)Cn3nc(-c4nccn4C)c4cccnc43)CC2)ccc1Cl only.
Completion: ≥ 7.00

Prompt: Send back CCR1 (Homo sapiens, UniProt P32246) pIC50 of O=C(Cn1nc(-c2ncc[nH]2)c2cccnc21)N1CCN(c2ccc(Cl)c(C(F)(F)F)c2)CC1 only.
Completion: < 7.00

Prompt: Send back CCR1 (Homo sapiens, UniProt P32246) pIC50 of CCOc1cc(N2CCN(C(=O)Cn3nc(-c4ncc[nH]4)c4cccnc43)CC2)ccc1Cl only.
Completion: ≥ 7.00

Prompt: Send back CCR1 (Homo sapiens, UniProt P32246) pIC50 of O=C(Cn1nc(-c2ncc[nH]2)c2cccnc21)N1CCN(c2ccc(Cl)c(OC(F)(F)F)c2)CC1 only.
Completion: < 7.00

Prompt: Send back CCR1 (Homo sapiens, UniProt P32246) pIC50 of CCOc1cc(N2CCN(C(=O)Cn3nc(-c4ncc[nH]4)c4cccnc43)CC2)c(F)cc1Cl only.
Completion: ≥ 7.00
